- Tested on: STAT1 (phosphorylated at Tyr701) in NCI-H1373 cells
- MEASUREMENT_NOTES: Phospho-STAT1 (Tyr701) LANCE Ultra TR-FRET detection assay
- Format: cell-based
- CONDITION_INFO: Homo sapiens, NCI-H1373, 48 h, induction of pSTAT1 in NCI-H1373 cells, 48 hours incubation; normalized to 10 uM positive control and DMSO; 4-parameter fit; read-out: NH1373 pSTAT1 EC50
RECORDED_ENDPOINT: pEC50
Quick note: pEC50 means taking -log10 of the concentration in moles per liter.

| COMPOUND | pEC50 |
| --- | --- |
| O=c1[nH]ncc(N[C@H]2CCC[C@@H](Cn3cc(Cl)c4cc(-c5ncc(C(F)F)cn5)c(F)cc4c3=O)C2)c1C(F)(F)F [Example 60] | 8.21 |
| O=c1[nH]ncc(N[C@H]2CCC[C@@H](Cn3cc(F)c4cc(-c5ncc(OC(F)(F)F)cn5)c(F)c(F)c4c3=O)C2)c1C(F)(F)F [Example 44] | 8.38 |
| Cc1nc(-c2cc3ccn(C[C@@H]4CCC[C@H](Nc5cn[nH]c(=O)c5C(F)(F)F)C4)c(=O)c3cc2F)ncc1Cl [Example 7] | 8.22 |
| O=c1[nH]ncc(N[C@H]2CCC[C@@H](Cn3ccc4cc(-c5ncc(OCCO)cn5)c(F)c(F)c4c3=O)C2)c1C(F)(F)F [Example 47] | 8.31 |
| O=c1[nH]ncc(N[C@H]2CCC[C@@H](Cn3ccc4cc(-c5nc6ccc(F)cn6n5)c(F)c(F)c4c3=O)C2)c1C(F)(F)F [Example 17] | 8.94 |
| O=c1[nH]ncc(N[C@H]2CCC[C@@H](Cn3ccc4cc(-c5ncc(-n6cccn6)cn5)c(F)cc4c3=O)C2)c1C(F)(F)F [Example 1] | 8.18 |
| CS(=O)(=O)c1cnc(-c2cc3c(F)cn(C[C@@H]4CCC[C@H](Nc5cn[nH]c(=O)c5C(F)(F)F)C4)c(=O)c3c(F)c2F)nc1 [Example 41] | 8.49 |
| O=c1[nH]ncc(N[C@H]2CCC[C@@H](Cn3cc(Cl)c4cc(-c5nc6ccccn6n5)c(F)cc4c3=O)C2)c1C(F)(F)F [Example 59] | 8.69 |

Q: Requested field: pEC50. Item: O=c1[nH]ncc(N[C@@H]2C[C@H](Cn3ccc4cc(-c5ncc(C(F)(F)F)cn5)c(F)cc4c3=O)CC[C@@H]2O)c1C(F)(F)F (racemic) [Example 68]
A: 7.19

Q: Fill blank: measured pEC50 of the compound O=c1[nH]ncc(N[C@H]2CCC[C@@H](Cn3cc(F)c4cc(-c5ncc(C(F)F)cn5)c(F)c(F)c4c3=O)C2)c1C(F)(F)F [Example 34] is ____.
A: 9.02

Q: Looking for the measured pEC50 of CC(F)(F)c1cnc(-c2cc3ccn(C[C@@H]4CCC[C@H](Oc5cn[nH]c(=O)c5C(F)(F)F)C4)c(=O)c3c(F)c2F)nc1 [Example 56] , can you help?
A: 9.04

Q: Given the compound [2H]C([2H])([2H])Oc1cnc(-c2cc3c(cc2F)C(=O)N(C[C@@H]2CCC[C@H](Nc4cn[nH]c(=O)c4C(F)(F)F)C2)CC3)nc1 [Example 71] , what is its reported pEC50?
A: 8.12
